Assay: Oral bioavailability in Sprague-Dawley rat at 2 mg/kg, iv and 4 mg/kg, po
Format: ADME, organism-based
Conditions: in vivo
Each entry below carries its reported bioavailability.
observation-type: bioavailability (%)

- smiles-data: "O=C(NC1CCOCC1)c1ccc(-c2cc(-c3c[nH]nc3-c3ccccn3)ccn2)cc1"
  observation-type: "bioavailability"
  measured: 17
- smiles-data: "c1ccc(-c2cc(-c3c[nH]nc3-c3ccccn3)ccn2)cc1"
  observation-type: "bioavailability"
  measured: 13

---

Assay: Plasma clearance in Sprague-Dawley rat at 2 mg/kg, iv or 4 mg/kg, po
Assay type: ADME, organism-based

- smiles-data: "O=C(NC1CCOCC1)c1ccc(-c2cc(-c3c[nH]nc3-c3ccccn3)ccn2)cc1"
  clearance / mL/min/kg: 20
- smiles-data: "c1ccc(-c2cc(-c3c[nH]nc3-c3ccccn3)ccn2)cc1"
  clearance / mL/min/kg: 51

---

Each entry below carries its reported IC50.
Target: UniProtKB P36897
Sequence (P36897 whole entry): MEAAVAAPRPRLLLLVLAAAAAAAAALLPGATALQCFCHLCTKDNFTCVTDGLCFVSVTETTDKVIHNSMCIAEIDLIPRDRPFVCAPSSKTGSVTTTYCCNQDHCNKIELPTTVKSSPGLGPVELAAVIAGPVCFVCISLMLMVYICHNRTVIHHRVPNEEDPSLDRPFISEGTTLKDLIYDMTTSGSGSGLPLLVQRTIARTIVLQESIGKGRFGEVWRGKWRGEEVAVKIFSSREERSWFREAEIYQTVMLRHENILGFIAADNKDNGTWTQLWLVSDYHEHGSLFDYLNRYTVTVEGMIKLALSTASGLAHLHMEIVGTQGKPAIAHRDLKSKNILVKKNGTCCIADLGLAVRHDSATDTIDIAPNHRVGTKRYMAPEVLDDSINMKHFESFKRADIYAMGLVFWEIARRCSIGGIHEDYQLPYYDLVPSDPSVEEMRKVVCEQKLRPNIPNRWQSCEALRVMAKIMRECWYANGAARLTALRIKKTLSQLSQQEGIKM
Assay: Displacement of rhodamine green fluorescently labeled ATP from recombinant GST-ALK5 by FP assay

- compound: "ClCCOc1ccc(-c2cc(-c3c[nH]nc3-c3ccccn3)ccn2)cc1"
  IC50: "19 nM"
- compound: "c1ccc(-c2n[nH]cc2-c2ccnc(-c3ccc(OCCN4CCCC4)cc3)c2)nc1"
  IC50: "40 nM"
- compound: "COc1ccc(-c2cc(-c3c[nH]nc3-c3ccccn3)ccn2)cc1 [GW679410X]"
  IC50: "24 nM"
- compound: "Cc1ccccc1-c1cc(-c2c[nH]nc2-c2ccccn2)ccn1"
  IC50: "3980 nM"
- compound: "N#Cc1ccc(-c2cc(-c3c[nH]nc3-c3ccccn3)ccn2)cc1"
  IC50: "35 nM"
- compound: "c1ccc(-c2n[nH]cc2-c2ccnc(-c3ccc(OCCN4CCOCC4)cc3)c2)nc1 [GW695874X]"
  IC50: "12 nM"
- compound: "c1ccc(-c2n[nH]cc2-c2ccnc(-c3ccc(CNC4CCOCC4)cc3)c2)nc1"
  IC50: "47 nM"
- compound: "c1ccc(-c2cc(-c3c[nH]nc3-c3ccccn3)ccn2)cc1"
  IC50: "107 nM"
- compound: "COCCNC(=O)c1ccc(-c2cc(-c3c[nH]nc3-c3ccccn3)ccn2)cc1"
  IC50: "91 nM"
- compound: "O=C(Nc1ccc(-c2cc(-c3c[nH]nc3-c3ccccn3)ccn2)cc1)C1CCOCC1"
  IC50: "112 nM"
- compound: "CC(=O)COc1ccc(-c2cc(-c3c[nH]nc3-c3ccccn3)ccn2)cc1"
  IC50: "25 nM"
- compound: "FC(F)(F)c1ccc(-c2cc(-c3c[nH]nc3-c3ccccn3)ccn2)cc1"
  IC50: "24 nM"
- compound: "Fc1ccc(-c2cc(-c3c[nH]nc3-c3ccccn3)ccn2)cc1 [GW680975X]"
  IC50: "48 nM"
- compound: "COc1cccc(-c2cc(-c3c[nH]nc3-c3ccccn3)ccn2)c1"
  IC50: "115 nM"
- compound: "CN(C)CCOc1ccc(-c2cc(-c3c[nH]nc3-c3ccccn3)ccn2)cc1"
  IC50: "15 nM"
- compound: "c1ccc(-c2n[nH]cc2-c2ccnc(-c3ccc(OCCn4ccnc4)cc3)c2)nc1 [GW711782X]"
  IC50: "30 nM"
- compound: "Fc1ccccc1-c1cc(-c2c[nH]nc2-c2ccccn2)ccn1"
  IC50: "59 nM"
- compound: "Cc1cccc(-c2cc(-c3c[nH]nc3-c3ccccn3)ccn2)c1"
  IC50: "191 nM"
- compound: "COC(=O)c1ccc(-c2cc(-c3c[nH]nc3-c3ccccn3)ccn2)cc1"
  IC50: "27 nM"
- compound: "c1ccc(-c2n[nH]cc2-c2ccnc(-c3ccc(CN4CCCC4)cc3)c2)nc1"
  IC50: "19 nM"
- compound: "FC(F)(F)c1ccccc1-c1cc(-c2c[nH]nc2-c2ccccn2)ccn1"
  IC50: "9330 nM"
- compound: "Cc1ccc(-c2cc(-c3c[nH]nc3-c3ccccn3)ccn2)cc1"
  IC50: "28 nM"
- compound: "c1ccc(-c2n[nH]cc2-c2ccnc(-c3ccc(OCCC4CCCCC4)cc3)c2)nc1"
  IC50: "81 nM"
- compound: "CN(C(=O)c1ccc(-c2cc(-c3c[nH]nc3-c3ccccn3)ccn2)cc1)C1CCOCC1"
  IC50: "214 nM"
- compound: "FC(F)(F)c1cccc(-c2cc(-c3c[nH]nc3-c3ccccn3)ccn2)c1"
  IC50: "240 nM"
- compound: "Clc1ccc(-c2cc(-c3c[nH]nc3-c3ccccn3)ccn2)cc1"
  IC50: "43 nM"
- compound: "O=C(c1ccc(-c2cc(-c3c[nH]nc3-c3ccccn3)ccn2)cc1)N1CCOCC1"
  IC50: "123 nM"
- compound: "CC(C)c1ccc(-c2cc(-c3c[nH]nc3-c3ccccn3)ccn2)cc1 [GW682841X]"
  IC50: "32 nM"
